Data origin: the supplement of paper PMC10567573

B1: WEE1 (parent)
chain: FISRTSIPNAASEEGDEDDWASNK

# Variants of: B1
# TEST_METHOD_NOTES: protein stability index of a GFP-peptide fusion (GPS, HEK-293T) (PSI 1-6); higher = more stable;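 also: lentivirally expressed fusions sorted by FACS into six bins by GFP to DsRed ratio, PSI derived from sequencing read proportions per bin multiplied by bin number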
# MEASUREMENT_CONTEXT: c terminus: a fixed tail appended
PROPERTY_NAME: protein stability index
One number for each entry.

Some solved entries appear below for comparison.
- N23Y: 3.64
- T5S: 4.01
- N23W: 3.65
- S22C: 3.87
- P8Y: 2.16
- I2R: 5.32

For the 5 variants below, give their protein stability index values.
1. T5F
2. G15Y
3. K24L
4. F1M
5. S22I

OUTPUT:
2.35
4.13
4.04
5.24
4.24

INPUT: Would you mind telling me what protein stability index value was observed for N9G ?
OUTPUT: 4.38
